PROTOCOL: xn = mol fraction of the nth substance listed, in the solute-free solvent
CONDITIONS USED: 308.15 K; x2 = 0.5
ENDPOINT NAME: solubility (g/100 g solution)

MOLECULE: Cc1ncc(CO)c(CO)c1O.Cl + O + CC#N
solubility (g/100 g solution): 7.19

MOLECULE: CCOc1ccccc1C(N)=O + CC#N + CC(C)O
solubility (g/100 g solution): 10.4

MOLECULE: Cc1c(Br)c(=O)n(C2CCCC2)c2nc(Cl)ncc12 + C1CCOC1 + CCO
solubility (g/100 g solution): 6.16

MOLECULE: Cc1c(Br)c(=O)n(C2CCCC2)c2nc(Cl)ncc12 + CC1=CC(=O)CC(C)(C)C1 + CC(C)O
solubility (g/100 g solution): 2.03

A: Cc1ncc(CO)c(CO)c1O.Cl + O + CCCO
B: CCOc1ccccc1C(N)=O + CCO + CC#N
Please indicate which has the smaller reported solubility (g/100 g solution): A , or B . // output: label of the selected item A
